Numbers sourced from paper PMC12040169.

- ASSAY_DETAILS: in vitro
- MEASUREMENT_SETUP: human, hela cells, % viability
PROPERTY_LABEL: viability at 28.5 h, 10 µM (%)
One number for each entry, in %.

Report viability at 28.5 h, 10 µM for every entry below.
1. COC(=O)c1cccc2c1CCCN2Cc1nnc(C2CC2)o1
2. COc1ccccc1-c1cn2ccnc2c(Nc2cccc(Cl)c2)n1
3. Cn1cccc1CCC(=O)NC1CCN(Cc2ccccc2Cl)CC1
4. O=S(=O)(c1ccc(F)c(Cl)c1)n1ccc2c(N3CCNCC3)nccc21 [CBK059059C]
5. COc1cc(CN2CCN(c3ccccn3)CC2)cc(Br)c1O
6. O=S(=O)(Nc1nccs1)c1ccc(Nc2ncnc3ccccc23)cc1 [CBK269487C]

Response:
1. 90.2
2. 89.4
3. 88.4
4. 90.7
5. 91.9
6. 93.8

Report viability at 28.5 h, 10 µM for every entry below.
1. Fc1cc(Br)c(CNCc2ncc[nH]2)c(N2CCCCC2)c1F
2. O=C(NCc1cccs1)c1ccc(-n2ccnc2)c(-n2cccc2)c1
3. CC(=O)Nc1ccc(S(=O)(=O)NCCSc2ccccn2)cc1

Response:
1: 99.2; 2: 102; 3: 90.1

====

Exercise: state measured viability at 28.5 h, 10 µM for each of the compounds provided.
- ASSAY_DETAILS: in vitro
- MEASUREMENT_SETUP: human, hela cells, % viability
Numbers only, in %.

Study these solved cases before continuing.
COMPOUND | NUMERIC_RESULT
OCCN1CC2(CCN(CCc3cccc4ccccc34)CC2)c2ccccc21 [CBK137013] | 106
O=C(Nc1cccc(N2CCCC2)c1)c1cc(C2CC2)on1 [CBK283139] | 87.7
COc1ccc2c(-n3cncn3)ccnc2c1 [CBK025957] | 90.2

Report viability at 28.5 h, 10 µM for every entry below.
1. O=C(CCCn1ccnc1)NC(Cc1cccs1)c1nccs1 (centres unmarked) [CBK285094]
2. O=S(=O)(Nc1ccc(N2CCNCC2)nc1)c1ccc(F)cc1F [CBK000022C]
3. O=c1c(Cc2ccccc2)c(O)c2ccccc2n1Cc1ccccc1 [CBK219368]
4. CS(=O)(=O)N1CCCc2cc(-c3csc(-c4cnccn4)n3)ccc21 [CBK305239]

Response:
[90.1, 110, 85.8, 95.4]

Query: Return the recorded viability at 28.5 h, 10 µM value; entry: Cc1nc[nH]c1CN(Cc1ccccc1)C1CC(C)(C)NC(C)(C)C1 [CBK283178]
Response: 92

====

- ASSAY_DETAILS: in vitro
- MEASUREMENT_SETUP: human, hela cells, % viability
PROPERTY_LABEL: viability at 28.5 h, 10 µM (%)
Numbers only, in %.

Study these solved cases before continuing.
COMPOUND | NUMERIC_RESULT
CCCc1[nH]nc(O)c1Cc1ccccc1-c1ccccc1 | 97.2
Nn1c(-c2cccs2)nc2ccccc2c1=O | 99.2
COC1C(O)C(CO)OC1n1ccc(=O)[nH]c1=O (stereo not shown) | 93.6
COc1ccc([C@@]23CC[C@@H](NC(=O)Nc4ccc5c(c4)OC(F)(F)O5)C[C@@H]2N(C)CC3)cc1OC [CBK073743T] | 88.8
O=c1c(Oc2ccccc2Br)c(C(F)(F)F)oc2c(CN3CCCC3)c(O)ccc12 | 96
CC1CN(C(=O)/C=C/C(=O)O)c2ccccc2NC1=O (stereo not shown) | 108
CCCS(=O)(=O)NC1CC(C)(C)Cc2c1cnn2-c1ccc(OC)cc1 (stereo not shown) | 103
CC(=O)NS(=O)(=O)c1ccc(NC(=O)/C=C/c2cccc([N+](=O)[O-])c2)cc1 | 88.6
Cc1ccccc1OCc1nnc(SCC(N)=O)n1-c1ccccc1 | 101
O=C1c2ccccc2C(=O)c2c1cccc2S(=O)(=O)N1CCN(C(=O)C2CCCO2)CC1 (stereo not shown) | 40.5

Report viability at 28.5 h, 10 µM for every entry below.
1. CN1CC(CO)Oc2ccccc21 (stereo not shown) [CBK003872C]
2. O=C(c1ccc2ncccc2c1)N1CCN(c2ncccn2)CC1
3. Clc1ccc(-n2ccnc2)cc1
4. CS(=O)(=O)N(CC(=O)Nc1ccc2ccccc2c1)c1ccc(Cl)cc1Cl
5. Cc1c(F)cccc1CNCCNC(=O)OC(C)(C)C

Response:
1. 104
2. 87.9
3. 107
4. 87.6
5. 95.7
